Source of measurements: patent US8216581

Molecular target: T1, GPIIb/IIIa on intact human platelets (human, UniProt P08514 32-1039; P05106 27-788)
T1 construct: whole, on cells; also called platelet GPIIb/IIIa; αIIbβ3
Assay: immunoprecipitation from biotinylated platelets; agrees with ELISA and Glanzmann platelet flow cytometry;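 note: precipitated biotin-labelled platelet membrane proteins visualized with biotinylated horseradish peroxidase-avidin complexes, scored for polypeptides behaving like GPIIb/IIIa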

BINDER: H45L61 (Fab, V domains shown, Soluble Fab, clone A) VH: QVQLVESGGGVVQPGRSLRLSCAASGFTFSNFNMHWVRQAPGKGLEWVALISYDGSSKYYTDSVKGRFTISRDNSKNTLYLQMNSLRPEDTAVYYCMVVGAFDYWGQGTLVTVSS VL: EIVLTQSPGTLSLSPGERATLSCRASQSVGSSYLAWYQQKPGQAPRLLIYGVSSRATGIPDRFSGSGSGTDFTLTISRLEPEDFAVYYCQQYGGSPLTFGGGTTVEIK
binding result: no binding
--
BINDER: H38L39 (Fab, V domains shown, Soluble Fab) VH: QVQLVESGGGVVQPGRSLRLSCAASGFTFSNYAMHWVRQAPGKGLEWVAVISYDGSNKYYADSVKGRFTISRDNSKNTLYLQMNSLRPEDTAVYYCARGGVGAFDYWGQGTLVTVSS VL: DIVMTQSPPSLPVTPGEPASISCRSSQSLLHTNGYNYLDWYLQKPGQSPQLLIYLGSNRASGVPDRFSGSGSGTDFTLTISRVEAEDVGVFYCMQALEPPYTFGQGTKLEIK
binding result: no binding
